- Test system: BJ
- testDescription: Cytotoxicity against human BJ cells assessed as reduction in cell viability measured after 72 hrs by MTS assay
- Format: cell-based
pIC50: −log10 of the molar value.
Quick reference: pIC50 of the listed items.

>>> reported("C=C(C=O)[C@@H]1CC[C@]2(C(=O)O)CC[C@]3(C)[C@H](CC[C@@H]4[C@@]5(C)CC[C@H](O)C(C)(C)[C@@H]5CC[C@]43C)[C@@H]12")
5.17
>>> reported("C=C(/C=C/c1cccc(C(=O)O)c1)[C@@H]1CC[C@]2(C(=O)O)CC[C@]3(C)[C@H](CC[C@@H]4[C@@]5(C)CC[C@H](O)C(C)(C)[C@@H]5CC[C@]43C)[C@@H]12")
"< 4.30"

Notebook: C=C(/C=C/c1cccc(C(F)(F)F)c1)[C@@H]1CC[C@]2(C(=O)O)CC[C@]3(C)[C@H](CC[C@@H]4[C@@]5(C)CC[C@H](O)C(C)(C)[C@@H]5CC[C@]43C)[C@@H]12 , pIC50 read as < 4.30

Notebook: C=C(/C=C/c1cccnc1)[C@@H]1CC[C@]2(C(=O)O)CC[C@]3(C)[C@H](CC[C@@H]4[C@@]5(C)CC[C@H](O)C(C)(C)[C@@H]5CC[C@]43C)[C@@H]12 , pIC50 read as < 4.30

Notebook: C=C(/C=C/c1ccc(F)c(Cl)c1)[C@@H]1CC[C@]2(C(=O)O)CC[C@]3(C)[C@H](CC[C@@H]4[C@@]5(C)CC[C@H](O)C(C)(C)[C@@H]5CC[C@]43C)[C@@H]12 , pIC50 read as < 4.30

Notebook: C=C(/C=C/c1ccc(C)cc1)[C@@H]1CC[C@]2(C(=O)O)CC[C@]3(C)[C@H](CC[C@@H]4[C@@]5(C)CC[C@H](O)C(C)(C)[C@@H]5CC[C@]43C)[C@@H]12 , pIC50 read as < 4.30

Notebook: C=C(/C=C/c1cccc([N+](=O)[O-])c1)[C@@H]1CC[C@]2(C(=O)O)CC[C@]3(C)[C@H](CC[C@@H]4[C@@]5(C)CC[C@H](O)C(C)(C)[C@@H]5CC[C@]43C)[C@@H]12 , pIC50 read as < 4.30

###

- testDescription: Stability in human plasma assessed as parent compound remaining at 2 uM incubated for 15 mins by RF-MS analysis
- Format: ADME, cell-free
- experimentalParameters: read-out: Stability
Quick reference: remaining at 0.25 h, 2 µM of the listed items.
Express it in %; write the number only.

>>> reported("C=C(/C=C/c1ccc([N+](=O)[O-])cc1)[C@@H]1CC[C@]2(C(=O)O)CC[C@]3(C)[C@H](CC[C@@H]4[C@@]5(C)CC[C@H](O)C(C)(C)[C@@H]5CC[C@]43C)[C@@H]12")
102

# evaluate next
Notebook: C=C(/C=C/c1cccc(Cl)c1)[C@@H]1CC[C@]2(C(=O)O)CC[C@]3(C)[C@H](CC[C@@H]4[C@@]5(C)CC[C@H](O)C(C)(C)[C@@H]5CC[C@]43C)[C@@H]12 , remaining at 0.25 h, 2 µM read as 92.3

###

Quick reference: remaining at 0.25 h, 2 µM of the listed items.
- testDescription: Microsomal stability in human liver microsomes assessed as parent compound remaining at 2 uM in the presence of NADPH measured after 15 mins by RF-MS analysis
- Type: ADME, Microsome
- experimentalParameters: read-out: Stability
Express it in %; write the number only.

>>> reported("C=C(/C=C/c1ccc([N+](=O)[O-])cc1)[C@@H]1CC[C@]2(C(=O)O)CC[C@]3(C)[C@H](CC[C@@H]4[C@@]5(C)CC[C@H](O)C(C)(C)[C@@H]5CC[C@]43C)[C@@H]12")
93.2

Notebook: C=C(/C=C/c1cccc(Cl)c1)[C@@H]1CC[C@]2(C(=O)O)CC[C@]3(C)[C@H](CC[C@@H]4[C@@]5(C)CC[C@H](O)C(C)(C)[C@@H]5CC[C@]43C)[C@@H]12 , remaining at 0.25 h, 2 µM read as 90.1

###

Quick reference: Papp at 1 h, 10 µM of the listed items.
- testDescription: Apparent permeability of the compound in dog MDCK-MDR1 cells at pH 7.4 at 10 micromol/L measured after 1 hr by RF-MS analysis
- Format: ADME, cell-based, Canis lupus familiaris
- experimentalParameters: MDCK-MDR1, pH 7.4, dose 10 µmol/L

>>> reported("C=C(/C=C/c1ccc([N+](=O)[O-])cc1)[C@@H]1CC[C@]2(C(=O)O)CC[C@]3(C)[C@H](CC[C@@H]4[C@@]5(C)CC[C@H](O)C(C)(C)[C@@H]5CC[C@]43C)[C@@H]12")
"0.43 ×10⁻⁶ cm/s"

Notebook: C=C(/C=C/c1cccc(Cl)c1)[C@@H]1CC[C@]2(C(=O)O)CC[C@]3(C)[C@H](CC[C@@H]4[C@@]5(C)CC[C@H](O)C(C)(C)[C@@H]5CC[C@]43C)[C@@H]12 , Papp at 1 h, 10 µM read as 22.4 ×10⁻⁶ cm/s

###

Quick reference: remaining at 2 h, 2 µM of the listed items.
- testDescription: Stability in human plasma assessed as parent compound remaining at 2 uM incubated for 120 mins by RF-MS analysis
- Assay type: ADME, cell-free
- experimentalParameters: read-out: Stability
Express it in %; write the number only.

>>> reported("C=C(/C=C/c1cccc(Cl)c1)[C@@H]1CC[C@]2(C(=O)O)CC[C@]3(C)[C@H](CC[C@@H]4[C@@]5(C)CC[C@H](O)C(C)(C)[C@@H]5CC[C@]43C)[C@@H]12")
77.7

Notebook: C=C(/C=C/c1ccc([N+](=O)[O-])cc1)[C@@H]1CC[C@]2(C(=O)O)CC[C@]3(C)[C@H](CC[C@@H]4[C@@]5(C)CC[C@H](O)C(C)(C)[C@@H]5CC[C@]43C)[C@@H]12 , remaining at 2 h, 2 µM read as 71.5

###

- testDescription: Stability in human plasma assessed as parent compound remaining at 2 uM incubated for 60 mins by RF-MS analysis
- Type: ADME, cell-free
- experimentalParameters: read-out: Stability
endpointName: remaining at 1 h, 2 µM

>>> reported("C=C(/C=C/c1cccc(Cl)c1)[C@@H]1CC[C@]2(C(=O)O)CC[C@]3(C)[C@H](CC[C@@H]4[C@@]5(C)CC[C@H](O)C(C)(C)[C@@H]5CC[C@]43C)[C@@H]12")
"89.5%"

Notebook: C=C(/C=C/c1ccc([N+](=O)[O-])cc1)[C@@H]1CC[C@]2(C(=O)O)CC[C@]3(C)[C@H](CC[C@@H]4[C@@]5(C)CC[C@H](O)C(C)(C)[C@@H]5CC[C@]43C)[C@@H]12 , remaining at 1 h, 2 µM read as 69.3%

###

- testDescription: Fraction bound in human plasma at 10 uM measured after 4 hrs by RF-MS based rapid equilibrium dialysis method
Quick reference: PPB (% bound) at 4 h, 10 µM of the listed items.
Answer format: number, then unit.

>>> reported("C=C(/C=C/c1ccc([N+](=O)[O-])cc1)[C@@H]1CC[C@]2(C(=O)O)CC[C@]3(C)[C@H](CC[C@@H]4[C@@]5(C)CC[C@H](O)C(C)(C)[C@@H]5CC[C@]43C)[C@@H]12")
"68.1%"

Notebook: C=C(/C=C/c1cccc(Cl)c1)[C@@H]1CC[C@]2(C(=O)O)CC[C@]3(C)[C@H](CC[C@@H]4[C@@]5(C)CC[C@H](O)C(C)(C)[C@@H]5CC[C@]43C)[C@@H]12 , PPB (% bound) at 4 h, 10 µM read as 79%

###

- testDescription: Stability in human plasma assessed as parent compound remaining at 2 uM incubated for 30 mins by RF-MS analysis
- Assay type: ADME, cell-free
- experimentalParameters: read-out: Stability
endpointName: remaining at 0.5 h, 2 µM (%)
Express it in %; write the number only.

>>> reported("C=C(/C=C/c1cccc(Cl)c1)[C@@H]1CC[C@]2(C(=O)O)CC[C@]3(C)[C@H](CC[C@@H]4[C@@]5(C)CC[C@H](O)C(C)(C)[C@@H]5CC[C@]43C)[C@@H]12")
87.9

# evaluate next
Notebook: C=C(/C=C/c1ccc([N+](=O)[O-])cc1)[C@@H]1CC[C@]2(C(=O)O)CC[C@]3(C)[C@H](CC[C@@H]4[C@@]5(C)CC[C@H](O)C(C)(C)[C@@H]5CC[C@]43C)[C@@H]12 , remaining at 0.5 h, 2 µM read as 79.1

###

- Tested on: BJ
- testDescription: Cytotoxicity against human BJ cells assessed as reduction in cell viability measured after 72 hrs by MTS assay
- Assay type: cell-based
pIC50: −log10 of the molar value.
Quick reference: pIC50 of the listed items.

>>> reported("C=C(/C=C/c1ccc(C(F)(F)F)cc1)[C@@H]1CC[C@]2(C(=O)O)CC[C@]3(C)[C@H](CC[C@@H]4[C@@]5(C)CC[C@H](O)C(C)(C)[C@@H]5CC[C@]43C)[C@@H]12")
4.31
>>> reported("C=C(/C=C/c1ccc(OC)cc1)[C@@H]1CC[C@]2(C(=O)O)CC[C@]3(C)[C@H](CC[C@@H]4[C@@]5(C)CC[C@H](O)C(C)(C)[C@@H]5CC[C@]43C)[C@@H]12")
"< 4.30"
>>> reported("C=C(/C=C/c1cccc(Cl)c1)[C@@H]1CC[C@]2(C(=O)O)CC[C@]3(C)[C@H](CC[C@@H]4[C@@]5(C)CC[C@H](O)C(C)(C)[C@@H]5CC[C@]43C)[C@@H]12")
"< 4.30"

# evaluate next
Notebook: C=C(/C=C/C1CCCCC1)[C@@H]1CC[C@]2(C(=O)O)CC[C@]3(C)[C@H](CC[C@@H]4[C@@]5(C)CC[C@H](O)C(C)(C)[C@@H]5CC[C@]43C)[C@@H]12 , pIC50 read as < 4.30

Values from ChEMBL document CHEMBL4828721
